- Test system: RARb homodimer (NR concentration 270 nM)
- measurementProtocol: PBM binding z-score (relative to random genomic background probes); higher = stronger binding; sequences stand for … in GC…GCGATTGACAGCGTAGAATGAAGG
Quick list: PBM binding z-score per entry.
# answer = number (no unit)

Check out these entries, answers already filled in.
{"residues": "CGAAGGAGGGCATGAGTTGATAGCAAATGCCGAT", "testTarget": "RARb homodimer (NR concentration 270 nM)", "PBM binding z-score": 0.409}
{"residues": "ATCTCTAGGTAACAAGTTCAGTGAGAGAGAGGAC", "testTarget": "RARb homodimer (NR concentration 270 nM)", "PBM binding z-score": 1.86}
{"residues": "ATCTCTAGGTAAGAATCAGTTCAGTGAAGAACGC", "testTarget": "RARb homodimer (NR concentration 270 nM)", "PBM binding z-score": 0.542}
{"residues": "CCTTACCGGTCACTGACAGGTTATAGCATTTGGA", "testTarget": "RARb homodimer (NR concentration 270 nM)", "PBM binding z-score": 2.7}
{"residues": "CCTACTGGGCCATCAGATCATTGATATCAACGTT", "testTarget": "RARb homodimer (NR concentration 270 nM)", "PBM binding z-score": -0.087}

Ask: Give reported PBM binding z-score value for TCTAGTAGATCAATAGAGGTTAAGAAAGTGCGCT
Reply: 1.38

Ask: Retrieve PBM binding z-score measured for TCATATCGGTAAAAGGTGAAAGTCGGTGTGGTAA and print it.
Reply: 2.12

Ask: Report PBM binding z-score for ATTTACGGGTCAACGAGGTTATAGCACGCGTATA
Reply: 3.79

Ask: Supply reported PBM binding z-score belonging to this sequence: ACTAATAGTTGAGACGAGGGCAACCGATAGGTTG
Reply: 1.37
